- tested.system: sodium channel (ENaC), canine bronchial epithelia (Canis lupus familiaris, UniProt A0A8I3MKE6+A0A8I3Q679+Q95165)
- Construct: endogenous in cells; host or cells: primary canine bronchial epithelial cells cultured at air-liquid interface, mounted in Ussing chambers
- Sequence (A0A8I3Q679 1-649): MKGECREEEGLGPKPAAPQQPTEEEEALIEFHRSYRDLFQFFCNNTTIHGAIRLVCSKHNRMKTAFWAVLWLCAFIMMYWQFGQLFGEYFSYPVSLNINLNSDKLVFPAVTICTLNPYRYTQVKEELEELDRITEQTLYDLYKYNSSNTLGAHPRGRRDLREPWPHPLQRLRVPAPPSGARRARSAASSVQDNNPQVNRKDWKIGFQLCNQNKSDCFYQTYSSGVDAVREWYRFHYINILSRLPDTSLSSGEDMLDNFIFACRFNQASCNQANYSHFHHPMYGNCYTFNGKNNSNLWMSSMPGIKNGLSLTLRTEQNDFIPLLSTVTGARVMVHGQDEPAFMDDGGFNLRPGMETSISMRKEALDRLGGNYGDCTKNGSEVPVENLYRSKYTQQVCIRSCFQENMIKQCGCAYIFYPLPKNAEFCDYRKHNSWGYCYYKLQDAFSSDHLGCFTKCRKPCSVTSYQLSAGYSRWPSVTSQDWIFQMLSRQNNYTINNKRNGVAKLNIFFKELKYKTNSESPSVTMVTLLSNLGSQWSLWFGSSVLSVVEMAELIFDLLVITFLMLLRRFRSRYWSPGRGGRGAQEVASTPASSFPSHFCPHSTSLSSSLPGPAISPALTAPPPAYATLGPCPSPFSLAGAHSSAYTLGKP
- Sequence (Q95165 whole entry): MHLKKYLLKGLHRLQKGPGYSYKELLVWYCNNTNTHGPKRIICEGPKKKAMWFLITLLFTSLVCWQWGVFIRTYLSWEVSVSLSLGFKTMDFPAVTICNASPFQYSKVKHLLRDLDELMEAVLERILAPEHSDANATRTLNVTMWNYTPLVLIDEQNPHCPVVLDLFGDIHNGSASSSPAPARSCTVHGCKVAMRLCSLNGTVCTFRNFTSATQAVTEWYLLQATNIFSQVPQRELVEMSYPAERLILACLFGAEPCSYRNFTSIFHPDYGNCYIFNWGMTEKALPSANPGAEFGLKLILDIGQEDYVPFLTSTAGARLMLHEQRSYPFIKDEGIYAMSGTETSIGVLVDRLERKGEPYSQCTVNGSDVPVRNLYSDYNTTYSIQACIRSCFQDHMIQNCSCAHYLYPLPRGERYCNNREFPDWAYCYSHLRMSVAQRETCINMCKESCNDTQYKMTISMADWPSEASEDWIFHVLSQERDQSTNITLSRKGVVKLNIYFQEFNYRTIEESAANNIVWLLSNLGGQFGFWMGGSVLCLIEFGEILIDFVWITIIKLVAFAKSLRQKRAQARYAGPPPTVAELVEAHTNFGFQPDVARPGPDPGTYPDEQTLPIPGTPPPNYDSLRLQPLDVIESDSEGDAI
- Sequence (A0A8I3MKE6 1-646): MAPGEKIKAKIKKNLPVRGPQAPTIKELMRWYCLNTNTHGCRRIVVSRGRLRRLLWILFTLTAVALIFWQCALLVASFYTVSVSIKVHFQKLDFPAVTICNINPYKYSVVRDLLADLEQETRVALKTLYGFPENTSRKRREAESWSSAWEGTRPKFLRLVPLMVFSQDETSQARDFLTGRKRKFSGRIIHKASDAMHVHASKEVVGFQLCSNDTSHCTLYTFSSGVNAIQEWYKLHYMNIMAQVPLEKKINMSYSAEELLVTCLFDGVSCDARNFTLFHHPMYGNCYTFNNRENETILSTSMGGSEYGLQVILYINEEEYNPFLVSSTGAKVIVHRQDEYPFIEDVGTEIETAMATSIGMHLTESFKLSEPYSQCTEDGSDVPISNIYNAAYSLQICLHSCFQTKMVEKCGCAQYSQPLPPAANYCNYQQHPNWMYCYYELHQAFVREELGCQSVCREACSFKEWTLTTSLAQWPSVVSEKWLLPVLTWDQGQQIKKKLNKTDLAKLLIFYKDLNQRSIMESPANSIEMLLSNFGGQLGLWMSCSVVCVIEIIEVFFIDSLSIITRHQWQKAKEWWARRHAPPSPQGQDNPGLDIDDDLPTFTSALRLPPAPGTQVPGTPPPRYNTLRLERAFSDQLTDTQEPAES
- assay.name: In vitro measure of sodium channel blocking activity: inhibition of short circuit current (ISC) in airway epithelial monolayers in Ussing chambers
- Format: cell-based
- experimental.context: mean of N runs
Where a name gives a salt, the structure may show the parent alone.
readout.name: EC50 (nM)
Just the number in nM, nothing appended.

Task: Name the recorded EC50 for COC(=O)C(N)CCOc1ccc(CCCCNC(=N)NC(=O)c2nc(Cl)c(N)nc2N)cc1 (stereo not drawn) [PSA 17587, hydrochloride] .
Result: 19.4

Task: For the compound shown here, N=C(NCCCCc1ccc(NCC(N)=O)cc1)NC(=O)c1nc(Cl)c(N)nc1N [PSA 15104, dihydrochloride] , give the reported EC50.
Result: 19.1

Task: Find the recorded EC50 belonging to N=C(NCCCCc1ccc(OC[C@H](N)C(=O)O)cc1)NC(=O)c1nc(Cl)c(N)nc1N (stereo in doubt) and report it.
Result: 32.1

Task: // returns reported EC50 for input Cl.N=C(N)NCCNC(=O)c1ccc(CCCCNC(=N)NC(=O)c2nc(Cl)c(N)nc2N)cc1 [PSA 11834, hydrochloride]
Result: 3.68

Task: Any idea what its EC50 is? The compound is N=C(NCCCCc1ccc(SCCC(N)=O)cc1)NC(=O)c1nc(Cl)c(N)nc1N
Result: 4.7

Task: Quick one: EC50 for N=C(NCCCCc1ccc(NCCCC(=O)O)cc1)NC(=O)c1nc(Cl)c(N)nc1N ?
Result: 69

Task: Requested read-out: EC50. Entry: N=C(NCCCCc1ccc(NC(=O)CCN)cc1)NC(=O)c1nc(Cl)c(N)nc1N [PSA 14568, dihydrochloride]
Result: 3.92

Task: Would you kindly share the measured EC50 for N=C(NCCCCc1ccc(NCCN(C[C@H](O)[C@H](O)CO)C[C@H](O)[C@H](O)CO)cc1)NC(=O)c1nc(Cl)c(N)nc1N [PSA 17218, trihydrochloride] ?
Result: 32.4

Task: So what's the measured EC50 for this one? N=C(NCCCCc1ccc(OCCNCC(N)C(N)=O)cc1)NC(=O)c1nc(Cl)c(N)nc1N (stereo not drawn) [PSA 18704, tri-hydrochloride]
Result: 14.1

Task: Which EC50 reading was recorded for the compound N=C(NCCCCc1ccc(NCCN)cc1)NC(=O)c1nc(Cl)c(N)nc1N ?
Result: 15.4

Task: Fill in the blank: the reported EC50 of N=C(N)NCCNc1ccc(CCCCNC(=N)NC(=O)c2nc(Cl)c(N)nc2N)cc1 [PSA 17339, trihydrochloride] is ____.
Result: 6.83

Task: Name the recorded EC50 for N=C(NCCCCc1ccc(NCCCC(N)=O)cc1)NC(=O)c1nc(Cl)c(N)nc1N [PSA 18150, dihydrochloride] .
Result: 23.8

Task: Which EC50 reading was recorded for the compound CS(=O)(=O)N(c1ccc(CCCCNC(=N)NC(=O)c2nc(Cl)c(N)nc2N)cc1)S(C)(=O)=O ?
Result: 9.56

Task: Look at this compound and give its reported EC50. N=C(NCCCCc1ccc(C(=O)NCCN)cc1)NC(=O)c1nc(Cl)c(N)nc1N [PSA 11698, hydrochloride]
Result: 5.82

Task: Give its EC50 value. Item: N=C(NCCCCc1ccc(OCC(=O)N(CCO)CCO)cc1)NC(=O)c1nc(Cl)c(N)nc1N
Result: 12.7

* * *

Structures can show the parent of a compound that is named as a salt.
readout.name: melting point

Task: Record request: melting point value, item COC(=O)C(N)CCOc1ccc(CCCCNC(=N)NC(=O)c2nc(Cl)c(N)nc2N)cc1 (centres unmarked) (as salt: hydrochloride) [PSA 17587]
Result: 88 to 90 °C

Task: // query melting point value for entry COC(=O)[C@H](N)CCCc1ccc(CCCCNC(=N)NC(=O)c2nc(Cl)c(N)nc2N)cc1 [PSA 19603]
Result: 76 to 79 °C

Task: Need melting point, item N=C(NCCCCc1ccc(OCCNCC(N)C(N)=O)cc1)NC(=O)c1nc(Cl)c(N)nc1N (centres unmarked) (as salt: hydrochloride) [PSA 18704, tri-hydrochloride]
Result: 160 °C

Task: // melting point lookup, key: N=C(NCCCCc1ccc(OCCC(N)C(=O)O)cc1)NC(=O)c1nc(Cl)c(N)nc1N (centres unmarked) [PSA 17666]
Result: 178 to 180 °C

Task: GET /values?readout=melting point&item= N=C(NCCCCc1ccc(CCC[C@@H](N)C(=O)O)cc1)NC(=O)c1nc(Cl)c(N)nc1N [PSA 23184]
Result: 190 to 192 °C (dec.)

* * *

- tested.system: sodium channel (ENaC), canine bronchial epithelia (Canis lupus familiaris, UniProt A0A8I3MKE6+A0A8I3Q679+Q95165)
- Construct: endogenous in cells; host or cells: primary canine bronchial epithelial cells cultured at air-liquid interface, mounted in Ussing chambers
- assay.name: In vitro measure of sodium channel blocking activity: inhibition of short circuit current (ISC) in airway epithelial monolayers in Ussing chambers
- Assay type: cell-based
- experimental.context: relative potency for PSA 4022 = 100 using EC50 from PSA 4022 in same run, mean of N runs
Where a name gives a salt, the structure may show the parent alone.
Class (by Fold Amiloride** (PSA 4022 = 100) Mean) -- lo (below 40), mid (40 to below 90), hi (90 or more)

Task: Which bin should I file Cl.N=C(N)NCCNC(=O)c1ccc(CCCCNC(=N)NC(=O)c2nc(Cl)c(N)nc2N)cc1 [PSA 11834] under?
Result: hi

Task: Lab note: which band did C[N+](C)(C)CCOc1ccc(CCCCNC(=N)NC(=O)c2nc(Cl)c(N)nc2N)cc1.Cl.[Cl-] [PSA 11223] land in?
Result: mid

Task: Form field 'band' for N=C(N)NCCC(=O)Nc1ccc(CCCCNC(=N)NC(=O)c2nc(Cl)c(N)nc2N)cc1 [PSA 14984, dihydrochloride]
Result: hi

Task: Each compound maps to one class by Fold Amiloride** (PSA 4022 = 100) Mean. Which class for N=C(NCCCCc1ccc(NC(=O)CCN)cc1)NC(=O)c1nc(Cl)c(N)nc1N [PSA 14568, dihydrochloride] ?
Result: hi

Task: Please let me know in which category the item N=C(NCCCCc1ccc(C(=O)NCCN)cc1)NC(=O)c1nc(Cl)c(N)nc1N [PSA 11698, hydrochloride] belongs.
Result: hi

Task: Hi, small favor: classify N=C(NCCCCc1ccc(NCC(N)=O)cc1)NC(=O)c1nc(Cl)c(N)nc1N [PSA 15104, dihydrochloride] by its Fold Amiloride** (PSA 4022 = 100) Mean when you get a moment.
Result: lo

Task: Assign a category based on measured Fold Amiloride** (PSA 4022 = 100) Mean for N=C(NCCCCc1ccc(NCCN(C[C@H](O)[C@H](O)CO)C[C@H](O)[C@H](O)CO)cc1)NC(=O)c1nc(Cl)c(N)nc1N [PSA 17218, trihydrochloride] and give only the class name.
Result: lo

Task: Class label required: COC(=O)[C@@H](N)COc1ccc(CCCCNC(=N)NC(=O)c2nc(Cl)c(N)nc2N)cc1 [PSA 11041]
Result: lo

Task: Band assignment needed for N=C(NCCCCc1ccc(OC[C@H](N)C(=O)O)cc1)NC(=O)c1nc(Cl)c(N)nc1N (stereo in doubt) [PSA 10941] please.
Result: lo

Task: Would you mind sorting N=C(NCCCCc1ccc(CCC[C@@H](N)C(=O)O)cc1)NC(=O)c1nc(Cl)c(N)nc1N [PSA 23184] into the appropriate category?
Result: mid

Task: Into which category would you place N=C(NCCCCc1ccc(NCCNC[C@@H](O)CO)cc1)NC(=O)c1nc(Cl)c(N)nc1N [PSA 16721, trihydrochloride] ?
Result: mid

Task: Bin? N=C(NCCCCc1ccc(SCCC(N)=O)cc1)NC(=O)c1nc(Cl)c(N)nc1N [PSA 19605]
Result: hi

Task: Band of N=C(NCCCCc1ccc(OCCC(N)C(=O)O)cc1)NC(=O)c1nc(Cl)c(N)nc1N (stereo not drawn) [PSA 17666] ?
Result: lo

Task: Tag the class for COC(=O)C(N)CCOc1ccc(CCCCNC(=N)NC(=O)c2nc(Cl)c(N)nc2N)cc1 (stereo not drawn) [PSA 17587, hydrochloride]
Result: lo

Task: Consider N=C(NCCCCc1ccc(NC[C@@H](O)CO)cc1)NC(=O)c1nc(Cl)c(N)nc1N [PSA 16722] . To which Fold Amiloride** (PSA 4022 = 100) Mean class does it belong?
Result: mid

Task: Assign a category based on measured Fold Amiloride** (PSA 4022 = 100) Mean for N=C(NCCCCc1ccc(OCC(=O)N(CCO)CCO)cc1)NC(=O)c1nc(Cl)c(N)nc1N [PSA 16826] and give only the class name.
Result: mid

Task: Assign a bin to Cl.N=C(N)NCC(O)COc1ccc(CCCCNC(=N)NC(=O)c2nc(Cl)c(N)nc2N)cc1 (stereo not drawn) [PSA 11975]
Result: hi

Task: Returns: class label. Input: N=C(NCCCCc1ccc(NCCN)cc1)NC(=O)c1nc(Cl)c(N)nc1N [PSA 16436]
Result: lo

Task: Category of N=C(NCCCCc1ccc(N(CCN(C[C@H](O)CO)C[C@H](O)CO)C[C@H](O)CO)cc1)NC(=O)c1nc(Cl)c(N)nc1N [PSA 16311] , please.
Result: lo

Task: // return the class label for N=C(NCCCCc1ccc(NCCCC(N)=O)cc1)NC(=O)c1nc(Cl)c(N)nc1N [PSA 18150, dihydrochloride]
Result: mid

Task: Exercise: read the entry CS(=O)(=O)N(c1ccc(CCCCNC(=N)NC(=O)c2nc(Cl)c(N)nc2N)cc1)S(C)(=O)=O [PSA 10316] and state which class it falls under.
Result: hi
